Parameter: selective drug sensitivity score. Scope: all listed entries.
tested on: JURKAT; assay: selective drug sensitivity score (sDSS, relative to normal bone marrow) (sDSS (score)); higher = more potent and effective on the cell line relative to normal bone marrow cells; settings: 72 h;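 also: ALL cell lines in 384-well plates, five doses spanning 10,000-fold, each plate scaled between vehicle and 100 µmol/L benzalkonium chloride controls, sDSS an adapted area-under-curve metric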
Answer with the value's number alone.

Guide cases for selective drug sensitivity score, answers given:
compound	readout-type	recorded-value
COc1cc2c(N3CCN(C(=O)Nc4ccc(OC(C)C)cc4)CC3)ncnc2cc1OCCCN1CCCCC1 [Tandutinib] (top concentration 1000 nM)	selective drug sensitivity score	0
C=CCc1cccc(/C=N/NC(=O)CN2CCN(Cc3ccccc3)CC2)c1O [PAC-1] (top concentration 10000 nM)	selective drug sensitivity score	1.28
CN[C@@H](C)C(=O)N[C@H]1CN(C(=O)CC(C)C)CC[C@H]2CC[C@@H](C(=O)NC(c3ccccc3)c3ccccc3)N2C1=O [AT-406] (top concentration 10000 nM)	selective drug sensitivity score	-1.26
COc1cc2ncnc(Nc3cccc(Cl)c3F)c2cc1OC(=O)N1CCN(C)C[C@H]1C [AZD3759] (top concentration 1000 nM)	selective drug sensitivity score	-0.04
O=C(Nc1cccc(Nc2ncc(Br)c(NCCc3cnc[nH]3)n2)c1)N1CCCC1 [BX-912] (top concentration 10000 nM)	selective drug sensitivity score	-1.34

Please look at the following compound next.
Record request: selective drug sensitivity score value, item COc1cc(C)[nH]c(=O)c1CNC(=O)c1c(C)n([C@H](C)C2CCOCC2)c2ccccc12 [CPI-360] (top concentration 10000 nM)
0.1

----------
test system: NALM-6; assay: selective drug sensitivity score (sDSS, relative to normal bone marrow) (sDSS (score)); higher = more potent and effective on the cell line relative to normal bone marrow cells; conditions: 72 h
Could you label it Satisfied if measured selective drug sensitivity score is 1 or higher, and Not satisfied otherwise?

Take a look at these entries with their results.
compound	category-label
CCOCc1nc2c(N)nc3ccccc3c2n1CC(C)(C)O [Resiquimod] (top concentration 10000 nM)	Not satisfied
C[C@]12CC[C@H](O)CC1=CC[C@@H]1[C@@H]2CC[C@]2(C)C(c3cccnc3)=CC[C@@H]12 [Abiraterone] (top concentration 5000 nM)	Not satisfied

Evaluate CNC(=O)c1nn(C)c2c1C(C)(C)Cc1cnc(Nc3ccc(N4CCN(C)CC4)cc3)nc1-2 [Milciclib] (top concentration 10000 nM) : selective drug sensitivity score at minimum 1?
Satisfied

Further, for CC(C)(C)c1cnc(CSc2cnc(NC(=O)C3CCNCC3)s2)o1 [SNS-032] (top concentration 10000 nM) ?
Not satisfied

Further, for Cc1cn(-c2cc(NC(=O)c3ccc(C)c(Nc4nccc(-c5cnccn5)n4)c3)cc(C(F)(F)F)c2)cn1 [Radotinib] (top concentration 10000 nM) ?
Not satisfied

Further, for Cn1ncc(Cl)c1-c1cc(C(=O)N[C@H](CN)Cc2cccc(F)c2)sc1Cl [Afuresertib] (top concentration 1000 nM) ?
Satisfied

Further, for COc1cc2/c(=N/c3ccc(Br)cc3F)nc[nH]c2cc1OCC1CCN(C)CC1 [Vandetanib] (top concentration 1000 nM) ?
Not satisfied

Further, for O=C(Nc1ccncc1)C(=O)c1cn(Cc2ccc(Cl)cc2)c2ccccc12 [Indibulin] (top concentration 10000 nM) ?
Not satisfied

Further, for COc1ccc(Cn2ccc3ccc(C(=O)NO)cc32)cc1 (top concentration 10000 nM) ?
Satisfied

Further, for COc1cc(N2CCC(N3CCN(C)CC3)CC2)ccc1Nc1ncc(Cl)c(Nc2ccccc2P(C)(C)=O)n1 [Brigatinib] (top concentration 1000 nM) ?
Not satisfied

Further, for CN1CC[C@H](c2c(O)cc(O)c3c(=O)cc(-c4ccccc4Cl)oc23)[C@H](O)C1 [Alvocidib] (top concentration 10000 nM) ?
Not satisfied

----------
test system: HPB-ALL; test: selective drug sensitivity score (sDSS, relative to normal bone marrow) (sDSS (score)); higher = more potent and effective on the cell line relative to normal bone marrow cells; settings: 72 h
readout-type: selective drug sensitivity score
Answer with the value's number alone.

Guide cases for selective drug sensitivity score, answers given:
compound	selective drug sensitivity score
C/C(=C\c1csc(C)n1)[C@@H]1C[C@@H]2O[C@]2(C)CCC[C@H](C)[C@H](O)[C@@H](C)C(=O)C(C)(C)[C@@H](O)CC(=O)N1 [Ixabepilone] (top concentration 1000 nM)	7.08
CS(=O)(=O)c1ccc(C(=O)Nc2ccc(Cl)c(-c3ccccn3)c2)c(Cl)c1 [Vismodegib] (top concentration 10000 nM)	0.76
CC1=NN(c2ccc(C(=O)O)cc2)C(=O)C1=Cc1ccc(-c2cc(C)c(C)cc2[N+](=O)[O-])o1 [C646] (top concentration 25000 nM)	5.74

Please look at the following compound next.
Record request: selective drug sensitivity score value, item CCOC(=O)C1=CCCC[C@H]1S(=O)(=O)Nc1ccc(F)cc1Cl [Resatorvid] (top concentration 10000 nM)
0

----------
tested on: HPB-ALL; assay: selective drug sensitivity score (sDSS, relative to normal bone marrow) (sDSS (score)); higher = more potent and effective on the cell line relative to normal bone marrow cells; details: 72 h
readout-type: selective drug sensitivity score

molecule	recorded-value
O=C(c1cc(Cc2n[nH]c(=O)c3ccccc23)ccc1F)N1CCN(C(=O)C2CC2)CC1 [Olaparib] (top concentration 10000 nM)	-1.32
N#Cc1ccnc(N2C(=O)CC[C@H]2C(=O)N(c2cncc(F)c2)[C@H](C(=O)NC2CC(F)(F)C2)c2ccccc2Cl)c1 [Ivosidenib] (top concentration 10000 nM)	0

Record request: selective drug sensitivity score value, item N#Cc1ccc(COC[C@H]2O[C@@H](n3c(NCc4ccc(Cl)c(Cl)c4)nc4c(N)ncnc43)[C@H](O)[C@@H]2O)cc1 (top concentration 10000 nM)
4.32

Further, for CN(C)C[C@@H]1CCn2cc(c3ccccc32)C2=C(C(=O)NC2=O)c2cn(c3ccccc23)CCO1 [Ruboxistaurin] (top concentration 10000 nM) ?
-5.14

----------
test system: JURKAT; assay: selective drug sensitivity score (sDSS, relative to normal bone marrow) (sDSS (score)); higher = more potent and effective on the cell line relative to normal bone marrow cells; settings: 72 h
readout-type: selective drug sensitivity score
Answer with the value's number alone.

Guide cases for selective drug sensitivity score, answers given:
compound	selective drug sensitivity score
CCN1C(=O)CNc2ncc(-c3ccc(-c4nc[nH]n4)nc3C)nc21 [CC-115] (top concentration 10000 nM)	1.24
Cc1ccc(C(=O)Nc2cccc(C(F)(F)F)c2)cc1Nc1nc(-c2cccnc2)nc2c1cnn2C [NVP-BHG712] (top concentration 10000 nM)	2.98
COc1cc2ncnc(Nc3ccc(F)c(Cl)c3)c2cc1NC(=O)/C=C/CN1CCCCC1 [Dacomitinib] (top concentration 1000 nM)	-1.64
CCc1nc(C(N)=O)c(Nc2ccc(N3CCC(N4CCN(C)CC4)CC3)c(OC)c2)nc1NC1CCOCC1 [Gilteritinib] (top concentration 1000 nM)	-2.52
NCC(=O)Nc1ccc(-n2nc(C(F)(F)F)cc2-c2ccc3c(ccc4ccccc43)c2)cc1 (top concentration 25000 nM)	15.3
CCC(C)(C)C(=O)O[C@H]1C[C@@H](C)C=C2C=C[C@H](C)[C@H](CC[C@@H]3C[C@@H](O)CC(=O)O3)[C@H]21 [Simvastatin] (top concentration 10000 nM)	-0.52
CC(C)NC(=O)COc1cccc(-c2nc(Nc3ccc4[nH]ncc4c3)c3ccccc3n2)c1 [KD025] (top concentration 5000 nM)	-3.06
Cc1cc(F)c(C(=O)Nc2cccc(-c3nncn3C(C)C)n2)cc1-n1cnc(C2CC2)c1 [Selonsertib] (top concentration 1000 nM)	0

Param readout = selective drug sensitivity score; param system = JURKAT; param query = CS(=O)(=O)CCNCc1ccc(-c2ccc3ncnc(Nc4ccc(OCc5cccc(F)c5)c(Cl)c4)c3c2)o1 [Lapatinib] (top concentration 1000 nM) ; response: value
0

Further, for COc1ccc(S(=O)(=O)Nc2cccnc2Nc2ccc(O)cc2)cc1 [ABT-751] (top concentration 10000 nM) ?
15.6

Further, for N#CC(c1ccnc(OCc2ccc(CN3CCOCC3)cc2)n1)c1nc2ccccc2s1 (stereo not drawn) [Bentamapimod] (top concentration 10000 nM) ?
3.94

Further, for Cc1noc2c1-c1ccccc1C(c1ccc(Cl)cc1)=N[C@H]2CC(N)=O [CPI-0610] (top concentration 10000 nM) ?
-0.2

Further, for Cc1sc2c(c1C)C(c1ccc(Cl)cc1)=N[C@@H](CC(=O)Nc1ccc(O)cc1)c1nnc(C)n1-2 [Birabresib] (top concentration 10000 nM) ?
-1.98

----------
Parameter: selective drug sensitivity score. Scope: all listed entries.
tested on: COG-LL-394h; experiment: selective drug sensitivity score (sDSS, relative to normal bone marrow) (sDSS (score)); higher = more potent and effective on the cell line relative to normal bone marrow cells; conditions: 72 h
Answer with the value's number alone.

Guide cases for selective drug sensitivity score, answers given:
compound	recorded-value
CC[C@H](C)C(=O)O[C@H]1C[C@H](O)C=C2C=C[C@H](C)[C@H](CC[C@@H](O)C[C@@H](O)CC(=O)O)[C@H]21 [Pravastatin] (top concentration 10000 nM)	-0.66
Nc1nc2cc(-c3ccc4ncc(C(=O)N5CCOCC5)n4c3)ccc2o1 [Serabelisib] (top concentration 10000 nM)	-1.54

Param readout = selective drug sensitivity score; param system = COG-LL-394h; param query = C[C@@H](Oc1ccc2[nH]nc(/C=C/c3cnn(CCO)c3)c2c1)c1c(Cl)cncc1Cl (top concentration 1000 nM) ; response: value
-0.54
